differential viability (reversal) reference
# experimentalProtocol: reversal of MRP1-mediated doxorubicin resistance, pilot screen, H69AR cells, doxorubicin co-treatment (AID 601)
# conditionDetails: H69AR cells + 2 uM doxorubicin, CellTiter-Glo, 72 h; at 10 µM; hits give high values
measuredAttribute: differential viability (reversal) (%)

* O=C(CCCSc1nc2ccccc2s1)NC1=NCCS1 | -4.02
* CCCOc1cccc(C(=O)Nc2cc(NC(=O)c3ccco3)ccc2OC)c1 | -6.07
* FC(F)(F)C(F)(F)C(F)(F)c1nnc2ccc(N3CCOCC3)nn12 | -0.265
* CCOC(=O)c1c(NC(=O)c2ccoc2C)sc2c1CCC2 | -9.7
* COc1cc2c3c(c1)/C(=C1/SC(NC(C)=O)=NC1=O)C(=O)N3C(C)(C)C=C2C | -7.9
* O=C1C(CCS(=O)c2ccccc2)C(=O)N(c2ccccc2)N1c1ccccc1 (centres undefined) | 7.85
* Cc1onc(-c2c(Cl)cccc2Cl)c1C(=O)NCCN1CCOCC1 | -8.8
* Cc1cc(NC(=O)C23CCC(C)(C(=O)O2)C3(C)C)no1 (centres undefined) | 8.27
* CC(C(=O)NC(=O)NC1CCCCC1)N1CCN(c2ccccn2)CC1 (centres undefined) | 14.7
* COc1ccc(-c2n[nH]c(C)c2-c2ccc(Cl)cc2)c(O)c1OC | -10.6
* COc1ccc(-c2nnc(SC(C)C(=O)Nc3nccs3)n2-c2ccccc2)cc1OC (centres undefined) | -0.545
* Cn1c(=O)c2ncn(CC(=O)NCCOc3ccccc3)c2n(C)c1=O | 7.6
* Cc1ccc(OCc2nnc(SCC(=O)N3CCOCC3)n2C)cc1 | 17.4
* COc1ccccc1NC(=O)C(C)NS(=O)(=O)c1ccc(F)cc1 (centres undefined) | 0.595
* O=C(CSc1oc(-c2ccco2)nc1S(=O)(=O)c1ccccc1)NCC1CCCO1 (centres undefined) | 5.96
* CCCC(=O)Nc1ccccc1NC(=O)CN(C)S(=O)(=O)c1ccc(C)cc1 | 9.23
* CCN(CC)CCn1c(OC)cc(=O)[nH]c1=O | 0.635
* COC(=O)CS(=O)(=O)c1nnc([C@H](Cc2ccccc2)NC(=O)OC(C)(C)C)o1 | 0.515
* COc1cc(C(=O)N2CCCC(c3nc(-c4cccs4)no3)C2)cc(OC)c1OC (centres undefined) | 20.3
* CCCCN(Cc1cc2cc(OC)ccc2[nH]c1=O)C(=O)c1ccccn1 | 6.81
* O=C(NC1CCCCCCC1)C1CCN(c2nc3ccccc3o2)CC1 | -2.57
* O=C(CSc1ncnc2ccccc12)N1CCN(c2ccccc2)CC1 | 4.57
* Cc1occc1C(=O)Nc1nnc(C2CCCCC2)s1 | 14.1
* C=CCn1c(SCC(=O)Nc2cccc(OC)c2)nnc1-c1cccnc1 | 7.9
* CCn1c(SCC(=O)Nc2ccccc2F)nc2c(c1=O)SC(C)C2 (centres undefined) | 11.5
* COCCCNC(=O)CSc1nc2ccc(N3CCOCC3)cc2c(=O)n1CCc1ccccc1 | -5.04
* CCOC(=O)c1ccc(NS(=O)(=O)c2ccc(SC)cc2)cc1 | 10.8
* C=CCn1c(SCC(=O)c2ccccc2)nnc1-c1ccc2c(c1)OCO2 | -2.68
* CCOC(=O)Cc1nnc(Nc2cccc(O)c2)c2ccccc12 | 20.6
* Cc1ccccc1NS(=O)(=O)c1cc(C(=O)N2CCCC2)ccc1C | -4.14
* Cc1cc(NC(=O)CCCC(=O)Nc2ccc(F)cc2)no1 | -0.445
* COc1nc2ccc(C)cc2cc1-c1noc(-c2cccnc2)n1 | 11.8
* COc1cccc(OC)c1C(=O)Nc1ccccc1N1CCCC1 | 6.71
* O=C(O)Cn1nc2ccccc2n1 | 3.65
